test: Permeability in CALU-3 cells; type: in vitro ADME; conditions: human; apical-to-basal, CALU-3 monolayers, pH 7.4, 37° C., 10 μM compound
parameterMeasured: Papp A→B at 90 min, 10 μM (×10⁻⁶ cm/s)

Would you please look over these solved cases?
// returns reported Papp A→B at 90 min, 10 μM for input CCCCCCN(C)C(=O)c1cc2c(cc1O[C@H]1COC[C@@H]1O)n(CCO)c(CNC(=O)c1nc(Cl)c(N)nc1N)[n+]2CC.O=C([O-])C(F)(F)F
0.2

GET /values?readout=Papp A→B at 90 min, 10 μM&item= CC[n+]1c(CNC(=O)c2nc(Cl)c(N)nc2N)n(C[C@H](C)O)c2cc(OCCN(CP(C)(C)=O)C(=O)CC(C)C)ccc21.O=C([O-])C(F)(F)F
0.1

Request the reported Papp A→B at 90 min, 10 μM associated with CC[n+]1c(CNC(=O)c2nc(Cl)c(N)nc2N)n(C[C@H](C)O)c2cc(N(C)C)c(C(=O)N3CCN(C(=O)Cc4ccccn4)CC3)cc21.O=C([O-])C(F)(F)F
0.3

(1) CCCCCOc1cc2c(cc1C(=O)N1CCN(C(=O)Cc3ccccn3)CC1)[n+](CC)c(CNC(=O)c1nc(Cl)c(N)nc1N)n2C[C@H](C)O.O=C([O-])C(F)(F)F
(2) CC[n+]1c(CNC(=O)c2nc(Cl)c(N)nc2N)n(CC2CC2)c2cc(OCC(=O)N(C)Cc3nc(C)ccc3O)ccc21
(3) CCn1c(CNC(=O)c2nc(Cl)c(N)nc2N)[n+](CC)c2ccc(OCCNC(=O)CCN(C)C)cc21.Cl
Rank items: key Papp A→B at 90 min, 10 μM, increasing. Kindly provide the labels arranged according to the requested ordering.
2, 3, 1
(2: 0.08 ×10⁻⁶ cm/s, 3: 0.2 ×10⁻⁶ cm/s, 1: 0.3 ×10⁻⁶ cm/s)

---

test: Permeability in CALU-3 cells; format: in vitro ADME; conditions: human; basal-to-apical, CALU-3 monolayers, pH 7.4, 37° C., 10 μM compound
parameterMeasured: Papp B→A at 90 min, 10 μM (×10⁻⁶ cm/s)

What does the record list as Papp B→A at 90 min, 10 μM for CCn1c(CNC(=O)c2nc(Cl)c(N)nc2N)[n+](CC)c2cc(C(=O)N3CCOCC3)c(N3CCOCC3)cc21 ?
0.1

(P) CCCCCCN(C)C(=O)c1cc2c(cc1O[C@H]1COC[C@@H]1O)n(CCO)c(CNC(=O)c1nc(Cl)c(N)nc1N)[n+]2CC.O=C([O-])C(F)(F)F
(Q) CC[n+]1c(CNC(=O)c2nc(Cl)c(N)nc2N)n(CC2CCCCC2)c2cc(OCCOP(=O)(O)CCC[N+](C)(C)C)ccc21
Return label of the item with the larger Papp B→A at 90 min, 10 μM. Candidates: P , Q . Respond using the label that marks the chosen record.
P
(P: 0.08 ×10⁻⁶ cm/s, Q: 0.04 ×10⁻⁶ cm/s)

---

assay: Permeability in CALU-3 cells; format: in vitro ADME; conditions: human; basal-to-apical, CALU-3 monolayers, pH 7.4, 37° C., 10 μM compound
parameterMeasured: Papp B→A at 90 min, 10 μM (×10⁻⁶ cm/s)

Could you tell me which Papp B→A at 90 min, 10 μM is on file for CCNC(=O)c1cc2c(cc1OCC(=O)NCCN(C)C)n(CC)c(CNC(=O)c1nc(Cl)c(N)nc1N)[n+]2CC.Cl.[Cl-] ?
0.08

(A) CC[n+]1c(CNC(=O)c2nc(Cl)c(N)nc2N)n(C[C@H](C)O)c2cc(N(C)C)c(C(=O)N3CCN(C(=O)OC(C)(C)C)CC3)cc21.O=C([O-])C(F)(F)F
(B) CC[n+]1c(CNC(=O)c2nc(Cl)c(N)nc2N)n(C[C@H](C)O)c2cc(N(C)C)c(C(=O)N3CCN(C(=O)Cc4ccccn4)CC3)cc21.O=C([O-])C(F)(F)F
Compare reported Papp B→A at 90 min, 10 μM values for A and B . Which is lower? Answer = label.
A
(A: 0.1 ×10⁻⁶ cm/s, B: 0.2 ×10⁻⁶ cm/s)

---

target: ENaC (Epithelial Sodium Channel) (Mus musculus, UniProt Q61180+Q9WU38+Q9WU39); construct: Mouse kidney M-1 cells were cultivated in DMEM containing 5% FCS and 5 μM dexamethasone; endogenous in cells; assay: Ussing Chamber assay (short circuit current, amiloride sensitive I_SC) in M-1 cells; settings: Mouse kidney M-1 cells, apical application, 37° C.
Sequence (Q61180 whole entry): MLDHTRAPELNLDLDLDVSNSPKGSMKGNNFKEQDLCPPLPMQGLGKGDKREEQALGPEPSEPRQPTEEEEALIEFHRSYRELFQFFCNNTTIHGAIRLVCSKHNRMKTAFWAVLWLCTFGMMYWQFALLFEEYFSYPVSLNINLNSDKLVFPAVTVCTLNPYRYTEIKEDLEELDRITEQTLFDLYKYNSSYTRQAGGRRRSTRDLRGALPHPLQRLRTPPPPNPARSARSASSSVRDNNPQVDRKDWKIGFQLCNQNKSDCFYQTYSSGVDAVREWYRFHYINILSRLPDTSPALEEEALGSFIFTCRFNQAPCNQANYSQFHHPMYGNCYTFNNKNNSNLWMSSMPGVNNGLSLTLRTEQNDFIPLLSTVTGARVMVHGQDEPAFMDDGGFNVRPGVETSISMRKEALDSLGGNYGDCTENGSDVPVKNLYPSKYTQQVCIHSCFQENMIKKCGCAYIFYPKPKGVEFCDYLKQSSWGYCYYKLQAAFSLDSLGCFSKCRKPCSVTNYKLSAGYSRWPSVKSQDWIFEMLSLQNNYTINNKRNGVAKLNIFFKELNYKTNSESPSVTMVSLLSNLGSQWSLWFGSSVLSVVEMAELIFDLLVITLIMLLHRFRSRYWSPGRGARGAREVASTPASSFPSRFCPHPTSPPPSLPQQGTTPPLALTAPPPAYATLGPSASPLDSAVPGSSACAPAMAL
Sequence (Q9WU38 whole entry): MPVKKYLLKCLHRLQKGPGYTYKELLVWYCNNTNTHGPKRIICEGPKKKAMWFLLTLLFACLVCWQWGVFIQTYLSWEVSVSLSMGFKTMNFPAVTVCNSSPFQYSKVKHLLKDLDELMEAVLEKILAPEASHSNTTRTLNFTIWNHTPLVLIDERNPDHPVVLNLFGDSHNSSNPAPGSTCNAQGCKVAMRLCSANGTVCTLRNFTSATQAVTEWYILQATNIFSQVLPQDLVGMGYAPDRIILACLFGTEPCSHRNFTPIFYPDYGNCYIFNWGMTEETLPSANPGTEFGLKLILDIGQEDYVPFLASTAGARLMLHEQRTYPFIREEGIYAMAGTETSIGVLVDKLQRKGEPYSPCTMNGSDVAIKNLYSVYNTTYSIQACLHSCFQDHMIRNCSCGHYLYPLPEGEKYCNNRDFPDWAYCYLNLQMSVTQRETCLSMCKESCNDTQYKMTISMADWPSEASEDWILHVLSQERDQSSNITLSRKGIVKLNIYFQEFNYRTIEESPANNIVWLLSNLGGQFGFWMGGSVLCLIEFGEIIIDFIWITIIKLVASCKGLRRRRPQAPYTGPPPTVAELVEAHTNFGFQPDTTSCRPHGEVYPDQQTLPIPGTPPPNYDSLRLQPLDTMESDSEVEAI
Sequence (Q9WU39 whole entry): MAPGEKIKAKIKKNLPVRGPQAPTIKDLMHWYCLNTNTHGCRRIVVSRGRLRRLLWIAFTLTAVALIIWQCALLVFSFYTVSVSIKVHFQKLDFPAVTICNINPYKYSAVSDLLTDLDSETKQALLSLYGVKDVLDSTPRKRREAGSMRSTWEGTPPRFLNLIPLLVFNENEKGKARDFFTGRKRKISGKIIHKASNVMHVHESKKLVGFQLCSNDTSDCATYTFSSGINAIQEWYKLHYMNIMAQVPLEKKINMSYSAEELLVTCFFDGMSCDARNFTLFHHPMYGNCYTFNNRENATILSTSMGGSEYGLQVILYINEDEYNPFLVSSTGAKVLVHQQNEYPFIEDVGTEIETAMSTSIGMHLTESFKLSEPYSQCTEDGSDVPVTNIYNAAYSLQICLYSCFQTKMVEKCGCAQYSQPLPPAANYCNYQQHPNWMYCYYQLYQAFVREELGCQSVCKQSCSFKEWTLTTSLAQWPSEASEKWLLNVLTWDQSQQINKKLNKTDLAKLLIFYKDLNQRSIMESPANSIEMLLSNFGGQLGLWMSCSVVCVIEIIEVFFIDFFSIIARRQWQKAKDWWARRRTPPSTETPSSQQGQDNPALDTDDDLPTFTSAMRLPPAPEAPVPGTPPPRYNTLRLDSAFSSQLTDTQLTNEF
pIC50: −log10 of the molar value.
parameterMeasured: pIC50

(A) CC[n+]1c(CNC(=O)c2nc(Cl)c(N)nc2N)n(CCO)c2cc(OCC(=O)NCCC[n+]3cccc([O-])c3)ccc21.O=C([O-])C(F)(F)F [Example 1.01]
(B) CCn1c(CNC(=O)c2nc(Cl)c(N)nc2N)[n+](CC)c2ccc(CNC(=O)Cc3ncccc3O)cc21 [Example 4.03]
(C) CC[n+]1c(CNC(=O)c2nc(Cl)c(N)nc2N)n(C[C@H](C)O)c2cc(N(C)C)c(C(=O)N3CCN(C(=O)c4cncc(O)c4)CC3)cc21 [Example 4.17]
List from greatest to least pIC50. Answer by naming the labels in the order asked.
B, A, C
(B: 9.40, A: 8.70, C: 7.64)

---

target: ENaC (Epithelial Sodium Channel) (Mus musculus, UniProt Q61180+Q9WU38+Q9WU39); construct: Mouse kidney M-1 cells were cultivated in DMEM containing 5% FCS and 5 μM dexamethasone; endogenous in cells; test: Ussing Chamber assay (short circuit current, amiloride sensitive I_SC) in M-1 cells; conditions: Mouse kidney M-1 cells, apical application, 37° C.
parameterMeasured: IC50 (nM)

Use these answered entries as a reference point.
Param item = CCn1c(CNC(=O)c2nc(Cl)c(N)nc2N)[n+](CC)c2ccc(OCCNC(=O)CN3CCN(C)CC3)cc21 [Example 4.05] ; retrieve measured IC50.
0.4

# input compound: CCn1c(CNC(=O)c2nc(Cl)c(N)nc2N)[n+](CC)c2cc(F)c(C(=O)NCCCN(C)C)cc21 [Example 3.07] ; wanted: its IC50
1

Give the measured IC50 of CCn1c(CNC(=O)c2nc(Cl)c(N)nc2N)[n+](CC)c2cc(C(=O)NC3CCN(C(=O)OC(C)(C)C)CC3)c(OCC(=O)O)cc21 [Example 9.01] .
9

(a) CCOc1cc2c(cc1C(=O)N1CCNCC1)[n+](CC)c(CNC(=O)c1nc(Cl)c(N)nc1N)n2CC [Example 8.02]
(b) CCCCCOc1cc2c(cc1C(=O)N1CCNCC1)[n+](CC)c(CNC(=O)c1nc(Cl)c(N)nc1N)n2C[C@H](C)O [Example 8.03]
# min-compare on IC50 between a and b Indicate your choice by writing its label.
a
(a: 1 nM, b: 8 nM)

---

assay: Permeability in CALU-3 cells; type: in vitro ADME; settings: human; basal-to-apical, CALU-3 monolayers, pH 7.4, 37° C., 10 μM compound
parameterMeasured: Papp B→A at 90 min, 10 μM (×10⁻⁶ cm/s)

(1) CC[n+]1c(CNC(=O)c2nc(Cl)c(N)nc2N)n(CCO)c2cc(OCC(=O)NCCC[n+]3cccc([O-])c3)ccc21.O=C([O-])C(F)(F)F
(2) CCn1c(CNC(=O)c2nc(Cl)c(N)nc2N)[n+](CC)c2ccc(C(=O)NCCN(C)C)cc21.Cl.[Cl-]
Between the two listed entries 1 and 2 , which has its Papp B→A at 90 min, 10 μM at the higher number? The response must carry the label of the picked entry.
1
(1: 0.06 ×10⁻⁶ cm/s, 2: 0.03 ×10⁻⁶ cm/s)

(P) CCOCCNC(=O)c1cc2c(cc1N1CCOCC1)n(CC)c(CNC(=O)c1nc(Cl)c(N)nc1N)[n+]2CC.[Cl-]
(Q) CCCCCCN1CCC(NC(=O)c2cc3c(cc2F)n(CC)c(CNC(=O)c2nc(Cl)c(N)nc2N)[n+]3CC)CC1.O=CO.O=C[O-]
Of P and Q , whose reported Papp B→A at 90 min, 10 μM is the larger number? Answer format: the label of the selected item.
Q

---

Test: Permeability in CALU-3 cells
Type: in vitro ADME
Conditions: human; basal-to-apical, CALU-3 monolayers, pH 7.4, 37° C., 10 μM compound
Procedure: Permeability in CALU-3 Cells: Permeability measurements across polarized, confluent CALU-3 cell monolayers grown on permeable filter supports are used to provide information on the potential of a compound to pass the lung epithelium. Apparent permeability coefficients (Papp) of the compounds across the CALU-3 cell monolayers are measured (pH 7.4, 37° C.) in apical-to-basal (AB) and basal-to-apical (BA) transport direction. […]
parameterMeasured: Papp B→A at 90 min, 10 μM (×10⁻⁶ cm/s)

Which Papp B→A at 90 min, 10 μM is reported for this compound? CCn1c(CNC(=O)c2nc(Cl)c(N)nc2N)[n+](CC)c2ccc(OCCNC(=O)CCN(C)C)cc21.Cl
0.2

(a) CC[n+]1c(CNC(=O)c2nc(Cl)c(N)nc2N)n(C[C@H](C)O)c2cc(OCCN(CP(C)(C)=O)C(=O)CC(C)C)ccc21.O=C([O-])C(F)(F)F
(b) CCn1c(CNC(=O)c2nc(Cl)c(N)nc2N)[n+](CC)c2ccc(OCCNC(=O)[C@H](C)NC)cc21.Cl.[Cl-]
(c) CC[n+]1c(CNC(=O)c2nc(Cl)c(N)nc2N)n(CC2CC2)c2cc(OCC(=O)N(C)Cc3nc(C)ccc3O)ccc21
Please rank these compounds by Papp B→A at 90 min, 10 μM in descending order. # the answer lists labels in the order requested
c, b, a

Cited source for all entries: patent US10155749B2
